Can you tell me logD for the items I'm about to list?
test: physchem; conditions: n-octanol/3-morpholinopropanesulfonic acid (MOPS) buffer, pH 7.4
Give bare numbers.

> print(dat)
                                   compound  measurement.name  measurement
1  CC(C(O)c1ccc(O)cc1)N1CCC(Cc2ccccc2)CC1 (configuration not stated)              logD         1.43

Let us examine a further case.
Which logD is reported for this compound? "C[C@@H](CN1CCC(Cc2ccccc2)CC1)[C@@H](O)c1ccc(O)cc1"
1.9

----------
assay: Metabolic stability in human liver microsomes assessed as half-life at 10 uM measured after 120 mins by LC-MS/MS analysis; format: ADME, Microsome
Measurement name: half-life at 10 µM (min)
Answers are plain numbers, in min.

For "C[C@@H](CN1CCC(Cc2ccccc2)CC1)[C@@H](O)c1ccc(O)cc1" , what is its reported half-life at 10 µM?
23.7

----------
I'd appreciate it if you could supply Ki values for the items below.
biological target: Sigma non-opioid intracellular receptor 1 (Cavia porcellus); assay: Displacement of [3H](+)-pentazocine from sigma1 receptor in guniea pig brain membrane assessed as inhibition constant by competitive binding assay
Sequence (Q60492 whole entry): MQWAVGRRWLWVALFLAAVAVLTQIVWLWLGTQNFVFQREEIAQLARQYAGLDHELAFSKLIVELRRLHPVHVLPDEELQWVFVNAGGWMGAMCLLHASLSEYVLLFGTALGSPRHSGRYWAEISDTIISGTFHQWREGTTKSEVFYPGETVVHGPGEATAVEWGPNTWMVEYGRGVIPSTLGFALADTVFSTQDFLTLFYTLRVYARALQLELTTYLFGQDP
One number for each entry, in nM.

Use these answered entries as a reference point.
> print(dat)
                                   compound  measurement
1  C[C@@H](CN1CCC(Cc2ccccc2)CC1)[C@H](O)c1ccc2[nH]ncc2c1 (stereo in doubt; 10c)           46
2  C[C@H]([C@@H](O)c1ccc2[nH]ncc2c1)N1CCC(Cc2ccccc2)CC1          313
3  C[C@@H]([C@@H](O)c1ccc2[nH]ncc2c1)N1CCC(Cc2ccccc2)CC1          523

Consider the record given below.
# query: Ki | item C[C@@H]([C@H](O)c1ccc2[nH]ncc2c1)N1CCC(Cc2ccccc2)CC1 (stereo in doubt; 11ab) | system: Sigma non-opioid intracellular receptor 1 (Cavia porcellus)
38

----------
biological target: Albumin (Homo sapiens, UniProt P02768); assay: Binding affinity to human serum albumin measured after 60 mins by high performance affinity chromatography based LC-MS analysis; details: 1 h
Sequence (P02768 whole entry): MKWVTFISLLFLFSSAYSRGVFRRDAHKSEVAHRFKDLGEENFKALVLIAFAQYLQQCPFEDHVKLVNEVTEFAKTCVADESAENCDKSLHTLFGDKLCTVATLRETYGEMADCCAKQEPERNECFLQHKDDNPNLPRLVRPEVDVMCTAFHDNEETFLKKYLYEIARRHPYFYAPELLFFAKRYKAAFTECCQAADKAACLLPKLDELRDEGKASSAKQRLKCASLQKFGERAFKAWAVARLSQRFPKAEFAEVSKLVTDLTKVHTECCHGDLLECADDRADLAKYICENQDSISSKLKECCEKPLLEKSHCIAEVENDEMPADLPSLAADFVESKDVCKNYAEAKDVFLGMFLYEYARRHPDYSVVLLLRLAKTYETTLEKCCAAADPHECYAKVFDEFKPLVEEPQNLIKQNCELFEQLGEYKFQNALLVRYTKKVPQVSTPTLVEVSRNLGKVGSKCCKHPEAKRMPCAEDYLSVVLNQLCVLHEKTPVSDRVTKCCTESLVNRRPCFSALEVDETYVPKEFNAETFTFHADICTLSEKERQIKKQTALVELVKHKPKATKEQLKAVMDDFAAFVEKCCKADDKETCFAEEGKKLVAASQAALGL
Exercise: state measured Activity for each of the compounds provided.
Numbers only, in %.

Use the examples below as a reference point.
> print(dat)
                                   compound  unit.of.measure  measurement
1  C[C@@H](CN1CCC(Cc2ccccc2)CC1)[C@@H](O)c1ccc(O)cc1                %           82
2  CC(C(O)c1ccc(O)cc1)N1CCC(Cc2ccccc2)CC1 (stereo not given)                %           84
3  C[C@@H]([C@@H](O)c1ccc2[nH]ncc2c1)N1CCC(Cc2ccccc2)CC1                %           91
4  C[C@H]([C@H](O)c1ccc2[nH]ncc2c1)N1CCC(Cc2ccccc2)CC1 (stereo in doubt; 11c)                %           90
5  C[C@H](CN1CCC(Cc2ccccc2)CC1)[C@@H](O)c1ccc2[nH]ncc2c1                %           93

Each compound below has a recorded value; state its Activity.
1. C[C@@H](CN1CCC(Cc2ccccc2)CC1)[C@@H](O)c1ccc2[nH]ncc2c1
2. C[C@@H]([C@H](O)c1ccc2[nH]ncc2c1)N1CCC(Cc2ccccc2)CC1 (stereo in doubt; 11a)
3. C[C@H]([C@@H](O)c1ccc2[nH]ncc2c1)N1CCC(Cc2ccccc2)CC1
4. C[C@H](CN1CCC(Cc2ccccc2)CC1)[C@H](O)c1ccc2[nH]ncc2c1 (stereo in doubt; 10a)
5. C[C@@H](CN1CCC(Cc2ccccc2)CC1)[C@H](O)c1ccc2[nH]ncc2c1 (stereo in doubt; 10c)

1. 89
2. 92
3. 92
4. 89
5. 93

----------
target: Sigma intracellular receptor 2 (Rattus norvegicus, UniProt Q5U3Y7); experiment: Displacement of [3H](+)-pentazocine from sigma2 receptor in rat liver membrane assessed as inhibition constant by competitive binding assay
Answer each item with its documented pKi.
One number for each entry, as −log10 of the molar value.

> print(dat)
                                   compound                         target.under.test  measurement
1  C[C@H](CN1CCC(Cc2ccccc2)CC1)[C@@H](O)c1ccc2[nH]ncc2c1  Sigma intracellular receptor 2 (Rattus norvegicus, UniProt Q5U3Y7)         7.38

Value sought for every listed compound: pKi.
1. C[C@@H](CN1CCC(Cc2ccccc2)CC1)[C@@H](O)c1ccc2[nH]ncc2c1
2. C[C@@H]([C@H](O)c1ccc2[nH]ncc2c1)N1CCC(Cc2ccccc2)CC1 (stereo in doubt; 11ab)

6.68
6.61

----------
biological target: Glutamate receptor ionotropic, NMDA 2B (Homo sapiens)
Sequence (Q13224 whole entry): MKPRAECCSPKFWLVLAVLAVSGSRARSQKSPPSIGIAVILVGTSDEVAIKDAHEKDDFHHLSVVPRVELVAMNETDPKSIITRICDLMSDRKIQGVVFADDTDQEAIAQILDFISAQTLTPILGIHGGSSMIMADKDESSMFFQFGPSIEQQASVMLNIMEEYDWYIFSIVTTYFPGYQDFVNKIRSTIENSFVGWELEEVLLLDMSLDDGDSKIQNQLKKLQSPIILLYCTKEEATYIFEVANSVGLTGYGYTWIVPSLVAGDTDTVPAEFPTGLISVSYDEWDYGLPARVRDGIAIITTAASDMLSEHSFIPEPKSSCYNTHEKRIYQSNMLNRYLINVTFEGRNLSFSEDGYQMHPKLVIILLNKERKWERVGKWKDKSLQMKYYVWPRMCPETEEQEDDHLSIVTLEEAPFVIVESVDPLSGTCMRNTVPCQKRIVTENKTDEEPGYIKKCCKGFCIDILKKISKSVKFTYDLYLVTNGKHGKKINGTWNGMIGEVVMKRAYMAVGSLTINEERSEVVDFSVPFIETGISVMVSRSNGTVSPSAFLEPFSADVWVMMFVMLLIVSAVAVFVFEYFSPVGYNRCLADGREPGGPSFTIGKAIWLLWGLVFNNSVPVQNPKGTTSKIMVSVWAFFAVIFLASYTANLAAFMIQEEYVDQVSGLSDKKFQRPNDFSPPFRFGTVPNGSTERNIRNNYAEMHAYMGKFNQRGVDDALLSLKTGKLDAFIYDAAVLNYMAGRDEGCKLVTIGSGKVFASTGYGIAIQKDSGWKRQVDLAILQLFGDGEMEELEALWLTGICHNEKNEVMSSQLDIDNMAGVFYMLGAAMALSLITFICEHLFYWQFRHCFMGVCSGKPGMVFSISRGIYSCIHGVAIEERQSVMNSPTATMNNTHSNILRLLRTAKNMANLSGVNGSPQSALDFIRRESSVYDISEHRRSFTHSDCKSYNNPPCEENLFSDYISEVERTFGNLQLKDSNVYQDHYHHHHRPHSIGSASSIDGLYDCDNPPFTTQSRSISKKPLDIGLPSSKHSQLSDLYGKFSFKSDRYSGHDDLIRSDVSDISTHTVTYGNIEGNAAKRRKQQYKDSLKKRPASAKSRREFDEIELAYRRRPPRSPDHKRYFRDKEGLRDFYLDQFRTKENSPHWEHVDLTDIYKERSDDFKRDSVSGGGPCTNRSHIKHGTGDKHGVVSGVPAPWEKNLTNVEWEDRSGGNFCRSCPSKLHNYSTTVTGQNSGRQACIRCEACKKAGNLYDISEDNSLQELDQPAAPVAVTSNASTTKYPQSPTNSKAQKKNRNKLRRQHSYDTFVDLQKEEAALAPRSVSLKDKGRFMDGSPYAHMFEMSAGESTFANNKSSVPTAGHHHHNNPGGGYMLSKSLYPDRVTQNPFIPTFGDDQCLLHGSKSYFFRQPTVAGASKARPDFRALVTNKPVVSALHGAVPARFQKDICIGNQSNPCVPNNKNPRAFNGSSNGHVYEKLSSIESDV
Measurement name: Ki (nM)
Numbers only, in nM.

Bench note: what Ki did "C[C@@H](CN1CCC(Cc2ccccc2)CC1)[C@@H](O)c1ccc(O)cc1" show?
135

----------
What Ki was measured for each of the following?
biological target: Sigma non-opioid intracellular receptor 1 (Cavia porcellus); assay: Displacement of [3H](+)-pentazocine from sigma1 receptor in guniea pig brain membrane assessed as inhibition constant by competitive binding assay
I'd appreciate it if you included the unit after the number.

> print(dat)
                                   molecule                         target.under.test  measurement.name  measurement
1  C[C@@H](CN1CCC(Cc2ccccc2)CC1)[C@@H](O)c1ccc2[nH]ncc2c1  Sigma non-opioid intracellular receptor 1 (Cavia porcellus)                Ki        21 nM
2  C[C@H]([C@H](O)c1ccc2[nH]ncc2c1)N1CCC(Cc2ccccc2)CC1 (stereo in doubt; 11c)  Sigma non-opioid intracellular receptor 1 (Cavia porcellus)                Ki       672 nM
3  C[C@H]([C@H](O)c1ccc2[nH]ncc2c1)N1CCC(Cc2ccccc2)CC1 (stereo in doubt; 11cd)  Sigma non-opioid intracellular receptor 1 (Cavia porcellus)                Ki        34 nM
4  C[C@@H](CN1CCC(Cc2ccccc2)CC1)[C@H](O)c1ccc2[nH]ncc2c1 (stereo in doubt; 10cd)  Sigma non-opioid intracellular receptor 1 (Cavia porcellus)                Ki        44 nM
5  C[C@H](CN1CCC(Cc2ccccc2)CC1)[C@@H](O)c1ccc2[nH]ncc2c1  Sigma non-opioid intracellular receptor 1 (Cavia porcellus)                Ki        43 nM
6  C[C@@H]([C@H](O)c1ccc2[nH]ncc2c1)N1CCC(Cc2ccccc2)CC1 (stereo in doubt; 11a)  Sigma non-opioid intracellular receptor 1 (Cavia porcellus)                Ki        96 nM
7  C[C@H](CN1CCC(Cc2ccccc2)CC1)[C@H](O)c1ccc2[nH]ncc2c1 (stereo in doubt; 10a)  Sigma non-opioid intracellular receptor 1 (Cavia porcellus)                Ki        24 nM

Entry C[C@H](CN1CCC(Cc2ccccc2)CC1)[C@H](O)c1ccc2[nH]ncc2c1 (stereo in doubt; 10ab) has what Ki?
56 nM

----------
Biological target: Sigma intracellular receptor 2 (Rattus norvegicus, UniProt Q5U3Y7)
Sequence (Q5U3Y7 whole entry): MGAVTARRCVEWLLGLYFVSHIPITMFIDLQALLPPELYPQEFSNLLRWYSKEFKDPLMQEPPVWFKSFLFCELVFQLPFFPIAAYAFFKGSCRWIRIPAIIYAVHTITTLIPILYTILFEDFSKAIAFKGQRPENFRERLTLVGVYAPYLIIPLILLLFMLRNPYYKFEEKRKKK
Assay: Displacement of [3H](+)-pentazocine from sigma2 receptor in rat liver membrane assessed as inhibition constant by competitive binding assay
Measurement name: Ki (nM)
One number for each entry, in nM.

// known answers, use as guide
> print(dat)
                                   compound  unit.of.measure  measurement
1  C[C@H](CN1CCC(Cc2ccccc2)CC1)[C@H](O)c1ccc2[nH]ncc2c1 (stereo in doubt; 10ab)               nM          388
2  C[C@H]([C@H](O)c1ccc2[nH]ncc2c1)N1CCC(Cc2ccccc2)CC1 (stereo in doubt; 11c)               nM          112
3  C[C@H]([C@H](O)c1ccc2[nH]ncc2c1)N1CCC(Cc2ccccc2)CC1 (stereo in doubt; 11cd)               nM           19

Batch lookup, Ki per entry.
1. C[C@@H](CN1CCC(Cc2ccccc2)CC1)[C@H](O)c1ccc2[nH]ncc2c1 (stereo in doubt; 10c)
2. C[C@@H]([C@H](O)c1ccc2[nH]ncc2c1)N1CCC(Cc2ccccc2)CC1 (stereo in doubt; 11a)
3. C[C@H](CN1CCC(Cc2ccccc2)CC1)[C@H](O)c1ccc2[nH]ncc2c1 (stereo in doubt; 10a)
4. C[C@@H](CN1CCC(Cc2ccccc2)CC1)[C@H](O)c1ccc2[nH]ncc2c1 (stereo in doubt; 10cd)
5. C[C@@H]([C@@H](O)c1ccc2[nH]ncc2c1)N1CCC(Cc2ccccc2)CC1

269
33
111
57
556

Dear colleague, I am looking for the recorded Ki of the following compound: "C[C@H]([C@@H](O)c1ccc2[nH]ncc2c1)N1CCC(Cc2ccccc2)CC1"
263
